Data provenance is patent US20220185898A1.

Assay target: T1, mouse Sortilin Fc fusion protein (mouse; human, UniProt Q6PHU5 74-754)
T1 construct: whole entry named; also called mSort-Fc
Experimental protocol: ForteBio, avid;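 further: whole IgG captured on AHQ sensors, then contacted with Sortilin Fc fusion antigen at 100 nM, followed by an off-rate phase in buffer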
Property label: Kd (nM)
Enter your answer as a number in nM; do not include the unit.

Recorded results for 2 binders are shown here.
Incoming: # lookup: Kd of S-51 (antibody, V domains shown, IgG) VH: QVQLVESGGGVVQPGRSLRLSCAASGFTFSSYGMHWVRQAPGKGLEWVAVISYDGSNKYYADSVKGRFTISRDNSKNTLYLQMNSLRAEDTAVYYCAKGLEYYDSSRLYYPYYYYMDVWGKGTTVTVSS VL: EIVLTQSPATLSLSPGERATLSCRASQSVSSYLAWYQQKPGQAPRLLIYDASKRATGIPARFSGSGSGTDFTLTISSLEPEDFAVYYCQQRSNYPITFGGGTKVEIK
Outgoing: 1.21

Incoming: Moving on to the next binder: S-14 (antibody, V domains shown, IgG) VH: QVQLVQSGAEVKKPGASVKVSCKASGYTFTSYYMSWVRQAPGQGLEWMGIINPSGGSTSYAQKFQGRVTMTRDTSTSTVYMELSSLRSEDTAVYYCARDPSGIAAAGPASRYYYGMDVWGQGTTVTVSS VL: DIQMTQSPSSLSASVGDRVTITCRASQSISSYLNWYQQKPGKAPKLLIYGASSLQSGVPSRFSGSGSGTDFTLTISSLQPEDFATYYCQQHYVGPFTFGGGTKVEIK
Outgoing: 2.74

For the next question, use this binder.
Incoming: Which Kd is listed for S-9 (antibody, V domains shown, IgG) VH: QVQLVQSGAEVKKPGASVKVSCKASGYTFTSYGISWVRQAPGQGLEWMGWISAYNGNTNYAQKLQGRVTMTTDTSTSTAYMELRSLRSDDTAVYYCARDPGGYGPTLYYYYGMDVWGQGTTVTVSS VL: EIVMTQSPATLSVSPGERATLSCRASQSVSSNLAWYQQKPGQAPRLLIYGASTRATGIPARFSGSGSGTEFTLTISSLQSEDFAVYYCQQYNIYPLTFGGGTKVEIK ?
Outgoing: 2.16
